B1: HDV Ribozyme (parent)
chain: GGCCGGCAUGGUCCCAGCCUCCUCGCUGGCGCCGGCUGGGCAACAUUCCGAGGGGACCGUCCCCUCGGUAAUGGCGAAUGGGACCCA

- Variants of: B1
- run_description: self-cleavage, relative activity (ratio to wild type); higher = more cleavage; co-transcriptional
Overview of reported self-cleavage across a group of variants:
Give the figure by itself; no unit, no explanation.

Consider the worked cases shown below.
[
  {
    "variant_descriptor": "C66U C86G",
    "reported_measurement": 0.772
  },
  {
    "variant_descriptor": "C3U G74C",
    "reported_measurement": 0.0712
  },
  {
    "variant_descriptor": "C18U C66G",
    "reported_measurement": 0.813
  },
  {
    "variant_descriptor": "G29A G81A",
    "reported_measurement": 0.138
  },
  {
    "variant_descriptor": "G54U G59U",
    "reported_measurement": 1.14
  },
  {
    "variant_descriptor": "U23G",
    "reported_measurement": 0.731
  },
  {
    "variant_descriptor": "U20G G29U",
    "reported_measurement": 0
  },
  {
    "variant_descriptor": "A8C G17A",
    "reported_measurement": 0.831
  },
  {
    "variant_descriptor": "U23C G68A",
    "reported_measurement": 0.87
  },
  {
    "variant_descriptor": "A51U U69A",
    "reported_measurement": 0.95
  }
]

Input: # lookup: self-cleavage of U20G C49U
Output: 0.185

Input: # lookup: self-cleavage of C61A G82C
Output: 0.228

Input: # lookup: self-cleavage of U69G G81A
Output: 0.469

Input: # lookup: self-cleavage of U9A C18U
Output: 0.991

Input: # lookup: self-cleavage of G31U C44G
Output: 0.0665

Input: # lookup: self-cleavage of G11A U69A
Output: 0.166

Input: # lookup: self-cleavage of U37G G52A
Output: 0.106

Input: # lookup: self-cleavage of C26U C33U
Output: 0.872

Input: # lookup: self-cleavage of G25U A87C
Output: 0.0755

Input: # lookup: self-cleavage of U9G C41G
Output: 0.831
